STUDY SYSTEM: K3A/K4A-ORF1p (Homo sapiens, UniProt Q9UN81 1-338, K3A;K4A)
Sequence (Q9UN81 other isoform, or with tags, fused parts or gaps K3A;K4A): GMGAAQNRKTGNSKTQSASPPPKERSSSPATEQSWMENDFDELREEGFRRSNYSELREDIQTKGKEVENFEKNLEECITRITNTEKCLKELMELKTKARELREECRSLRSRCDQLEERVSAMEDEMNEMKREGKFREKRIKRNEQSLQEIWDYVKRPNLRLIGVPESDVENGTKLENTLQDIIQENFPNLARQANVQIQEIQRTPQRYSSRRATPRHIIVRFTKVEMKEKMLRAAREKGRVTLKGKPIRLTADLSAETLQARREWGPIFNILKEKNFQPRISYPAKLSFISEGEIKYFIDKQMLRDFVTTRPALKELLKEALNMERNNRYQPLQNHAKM
EXPERIMENTAL PROTOCOL: fluorescence anisotropy; 50 mM KCl; 20 mM Hepes pH 7.5, 50 mM KCl (150 or 300 mM in Fig. S1D rows), 1 mM MgCl2, 1 mM DTT; 1 nM 6-FAM oligo; temperature not stated
COND: protein: recombinant; tags: tag removed, N-terminal G left; chain copies: 3; label: 5' 6-FAM on strand 1 (anisotropy); blunt
MEASURE NAME: pKd
In simple prose, pKd is minus the logarithm base ten of a concentration in moles per litre.

Q: # query: pKd of entry 30 bp dsDNA (dsDNA) DNA 1: ACCATCATCAAAGACCAAAAGTAGATAAAA DNA 2: TTTTATCTACTTTTGGTCTTTGATGATGGT
Ans: 7.66

Data origin, for the record: paper PMC12047440
